# testTarget: T1, Biotin PSGL-1(42-62) peptide, unmodified (human, C-terminal Lys-biotin)
# T1 construct: Residues 42-62 followed by GGGK-biotin; also called WT; wild-type
# T1 peptide: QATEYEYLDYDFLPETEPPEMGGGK
# assayMethodText: ELISA, immobilized biotin peptide
# Procedure: A typical ELISA was performed by coating high binding half-well plates (Corning Cat. #3690) with 3 ug/mL/25 ul per well of biotinylated N-terminal PSGL-1 peptides, which incorporated residues 42 to 62 of the protein, in PBS, pH 7.4, overnight at 4° C. The peptide was unmodified or contained sulfated tyrosine at all 3 tyrosine positions (46, 48, and 51) or at one position (tyr51) (Table 7). PSGL-1 protein or peptide served as a positive control. […]
pEC50: −log10 of the molar value.
endpointName: pEC50

INSERT INTO results (binder, censorsymbol, endpointvalue) VALUES
  ('18L13 (antibody, V domains shown, Mouse hybridoma mAb; only variable domains given) VH: EVQLQQSGAELVRPGASVKLSCTASGFNIKDDFMHWVKQRPEQGLEWIGRIDPASGKTEYVPKFQDKATLTADTSSNTAYLQLSSLTSEDTAVYYCARRIAYWGQGTLVTVSA VL: DVVMTQTPLTLSVTIGQPASISCKSSQSLLHSNGKTYLNWLLQRPGQSPKLLIYLVSKLESGLPDRFSGSGSGTDFSLKISRVEAEDLGVYYCLQTTHFPQTFGGGTKLEIK', '=', 9.12),
  ('18F02 (antibody, V domains shown, From mouse immunisation; only variable domains given) VH: QVQLQQPGAELVKPGASVKLSCKASGYTFTSYWMHWVKQRPGQGLEWIGMIHPNSGRTNYNEKFKSKATLTVDKSSSTAYMQLSSLTSEDSAVYYCARSDYWGQGTTLTVSS VL: DIVMTQAAFSNPVTLGTSASISCRSSKSLLHSDGITYLYWFLQRPGQSPQLLIYRMSNLASGVPDRFSGSGSGTDFTLRISRVEAEDVGVYYCAQMLEFPRTFGGGTKLEIK', '=', 9.15),
  ('07E07 (antibody, IgG4, V domains shown) VH: QVQLQQSGAEVKKPGASVKVSCKASGYTFTSYYMHWVRQAPGQGLEWMGIINTSSGSTKYAQRFQDRVTVTRDTSTTTVYMELNSLRSEDTAVYYCARGGRAYSGSFDNWGQGTLVTVSS VL: DVVMTQSPLSLPVTLGQPASISCRSSQSLVHRDGNTYFNWFQQRPGQSPRRLIYKVSNRDSGVPDRFSGSGSGTDFTLKISRVEAEDVGVYYCMQATHWPRTFGQGTKVEIK', '<', 6.30),
  ('06A07 (antibody, IgG4, V domains shown) VH: QVQLVQSGPELKNPGASVKVSCKASGYSFTNFYINWVRQAPGRGLEWVGWISPNNGNTHYARNLQGRVTMTTDTSTNTAYLELKNLRSDDTAIYFCGRSVSMGYWGQGTLVTVSS VL: LPVLTQPPSVSKGLRQTATLTCTGNSKNVGNQGAAWLQQHQGQPPKLLSYRNNNRPSGISERFSASRSGNTASLTITGLQPEDEADYYCSAWDSSLSAQVFGGGTKLTVL', '=', 8.14);

Reference for the values: patent US20220396632A1
